These entries and their values trace back to paper PMC4336329.

systemTested: human ether-à-go-go-related gene (hERG) potassium channel (human, UniProt Q12809);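 also: peak tail current of the secondary pulse compared with the same well before compound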
Sequence (Q12809 whole entry, looked up): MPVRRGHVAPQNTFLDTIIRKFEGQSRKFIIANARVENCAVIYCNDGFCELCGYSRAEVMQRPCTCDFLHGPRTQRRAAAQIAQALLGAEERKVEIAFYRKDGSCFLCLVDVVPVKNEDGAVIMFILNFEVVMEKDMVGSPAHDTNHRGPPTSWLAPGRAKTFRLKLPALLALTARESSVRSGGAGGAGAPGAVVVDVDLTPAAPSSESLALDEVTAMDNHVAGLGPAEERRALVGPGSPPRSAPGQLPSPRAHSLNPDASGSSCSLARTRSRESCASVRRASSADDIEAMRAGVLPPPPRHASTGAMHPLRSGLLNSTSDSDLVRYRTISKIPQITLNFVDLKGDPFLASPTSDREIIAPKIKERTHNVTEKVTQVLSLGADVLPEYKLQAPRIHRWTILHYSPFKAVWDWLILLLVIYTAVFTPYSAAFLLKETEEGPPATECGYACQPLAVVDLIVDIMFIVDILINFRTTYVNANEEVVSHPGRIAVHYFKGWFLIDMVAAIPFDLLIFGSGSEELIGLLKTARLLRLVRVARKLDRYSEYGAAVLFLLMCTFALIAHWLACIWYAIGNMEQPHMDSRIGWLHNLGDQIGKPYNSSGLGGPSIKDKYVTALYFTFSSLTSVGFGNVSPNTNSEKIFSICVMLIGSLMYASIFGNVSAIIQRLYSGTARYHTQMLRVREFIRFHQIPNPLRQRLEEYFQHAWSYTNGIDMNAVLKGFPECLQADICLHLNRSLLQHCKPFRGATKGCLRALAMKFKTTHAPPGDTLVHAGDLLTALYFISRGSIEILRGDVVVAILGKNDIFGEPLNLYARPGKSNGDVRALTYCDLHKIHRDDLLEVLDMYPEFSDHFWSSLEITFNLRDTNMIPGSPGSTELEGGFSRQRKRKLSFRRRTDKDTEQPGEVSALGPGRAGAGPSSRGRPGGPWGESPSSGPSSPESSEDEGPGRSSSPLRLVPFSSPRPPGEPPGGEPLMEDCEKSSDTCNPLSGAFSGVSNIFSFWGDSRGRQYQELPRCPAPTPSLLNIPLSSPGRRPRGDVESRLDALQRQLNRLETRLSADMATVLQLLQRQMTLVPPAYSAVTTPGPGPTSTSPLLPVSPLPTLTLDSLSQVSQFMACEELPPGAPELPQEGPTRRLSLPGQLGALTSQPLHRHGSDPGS
assayRemarks: primary screen, population patch clamp on CHO cells stably expressing hERG; higher = less effect of the substance
In all, about 310,000 compounds went through this assay and about 14,000 (4.5%) showed an effect of 50% or more. The effect is printed as a negative number. The entries come from a sample that favours strong results as a whole.
Please go through the items and note down their hERG current change (%, negative = inhibition) at 10uM.
Numbers only, in %.

The cases that follow already have their hERG current change (%, negative = inhibition) at 10uM on record.
1) c1ccc(C(c2ccccc2)N2CCN(c3ccc4ccccc4n3)CC2)cc1
-3.18
2) Cn1c(N2CCNCC2)nc2ccccc21
-15.7
3) Cc1nn(C)c(Cl)c1CN1CCCC(C(=O)Nc2cccc(-n3cccn3)c2)C1 (centres unmarked)
-50.2
4) CC(C)n1c(N2CCN(C(=O)NCc3ccccc3)CC2)nc2ccccc21
-59.2
5) CCS(=O)(=O)N1CCN(Cc2ccc([N+](=O)[O-])cc2)CC1.O=C(O)C(=O)O
-44.4

Answer for every listed entry: what is its hERG current change (%, negative = inhibition) at 10uM? The entries follow.
1. CCCn1c(N2CCN(C(=O)NCc3ccccc3)CC2)nc2ccccc21
2. CCCn1c(N2CCN(S(=O)(=O)Cc3ccccc3)CC2)nc2ccccc21

-67.9
4.46

State recorded hERG current change (%, negative = inhibition) at 10uM for all listed molecules.
1. CSc1cccc(CN2CCCC(C(=O)Nc3cccc(-n4cccn4)c3)C2)c1 (centres unmarked)
2. N#Cc1ccc(NC(=O)CNc2cc(S(=O)(=O)N3CCOCC3)ccc2NCC2CCCO2)cc1 (centres unmarked)
3. CS(=O)(=O)N(Cc1ccccc1)c1ccc(C(=O)Nc2ccccc2Sc2ccccc2)cc1
4. CCCn1c(N2CCN(C(=O)Nc3ccccc3)CC2)nc2ccccc21
5. O=C(c1ccc(Cl)cc1)C1CCN(C(=O)NC2CCCCC2)CC1
6. COc1ccccc1N1CCN(CC(O)COCCOc2ccc(Br)cc2)CC1.Cl (centres unmarked)

1. -28.6
2. -70
3. 1.8
4. -35.9
5. -6.29
6. -58.8

Count: 5. Required value per item: hERG current change (%, negative = inhibition) at 10uM.
1. CN(C)S(=O)(=O)c1ccc(NC(=O)CN2CCC(Cc3ccccc3)CC2)cc1
2. COc1ccccc1N1CCN(CC(O)COc2ccc(S(=O)(=O)N3CCOCC3)cc2)CC1.Cl (centres unmarked)
3. CC(C)(C)OC(=O)NCCCCCc1nnc(SCC(=O)Nc2cccc(Cl)c2)o1
4. O=C(COc1ccc(Br)cc1Br)NC(=O)NC1CCCC1
5. COc1ccc(CN2CCCC(C(=O)Nc3cccc(-n4cccn4)c3)C2)cc1 (centres unmarked)

1. -32.8
2. -4.3
3. -50.7
4. 22.3
5. -58.9

Kindly give each listed record's hERG current change (%, negative = inhibition) at 10uM.
1. Cn1c(N2CCN(C(c3ccccc3)c3ccccc3)CC2)nc2ccccc21
2. O=C(Nc1cccc(-n2cccn2)c1)C1CCCN(Cc2ccccc2F)C1 (centres unmarked)

[-51.7, -30.4]
